# System: 5-LOX product formation
# experiment_summary: 5-LOX product formation in activated human M1 macrophages (metabololipidomics)
# condition_summary: Macrophage, cell-based, Staphylococcus aureus-conditioned medium 1.0%, 3 h, 15 min preincubation, read-out: IC50 for inhibition of 5-LOX product formation
Hi there, I'd appreciate the recorded pIC50 for every entry that follows.
Give bare numbers, as −log10 of the molar value.

COc1cc(O)c2c(c1)CCc1cc(OC)c(OC)c(O)c1-2 [Compound 9] = 5.42

Would you mind giving pIC50 for every compound in the list below?
1. COc1cc2c(c(OC)c1O)-c1c(ccc(OC)c1O)CC2 [Compound 10]
2. COC1=CC(=O)C2=C(C1=O)c1c(cc(OC)cc1OC)CC2 [Compound 5]

Result:
5.07
6.00

* * *

Hi there, I'd appreciate the recorded IC50 for every entry that follows.
# tested_on: human recombinant 5-LOX (Homo sapiens)
# Sequence (P09917 whole entry): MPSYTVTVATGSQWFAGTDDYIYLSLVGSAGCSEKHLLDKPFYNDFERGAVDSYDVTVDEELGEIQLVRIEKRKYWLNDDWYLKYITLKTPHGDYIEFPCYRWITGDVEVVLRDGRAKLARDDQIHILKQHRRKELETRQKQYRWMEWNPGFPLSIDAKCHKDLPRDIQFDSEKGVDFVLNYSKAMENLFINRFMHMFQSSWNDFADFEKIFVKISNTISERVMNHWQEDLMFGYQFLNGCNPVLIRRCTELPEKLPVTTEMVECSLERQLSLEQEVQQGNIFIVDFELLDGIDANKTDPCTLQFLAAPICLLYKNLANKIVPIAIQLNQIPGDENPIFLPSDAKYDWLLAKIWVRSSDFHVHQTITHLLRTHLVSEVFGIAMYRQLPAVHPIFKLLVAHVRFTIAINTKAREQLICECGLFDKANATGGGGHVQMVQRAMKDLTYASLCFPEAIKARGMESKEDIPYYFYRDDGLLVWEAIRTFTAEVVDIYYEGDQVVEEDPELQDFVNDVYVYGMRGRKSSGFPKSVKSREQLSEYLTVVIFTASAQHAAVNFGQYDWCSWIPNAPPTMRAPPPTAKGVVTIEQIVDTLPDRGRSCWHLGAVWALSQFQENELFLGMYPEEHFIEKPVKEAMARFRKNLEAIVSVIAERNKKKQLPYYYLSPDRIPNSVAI
# experiment_summary: cell-free 5-lipoxygenase activity assay
# condition_summary: arachidonic acid 20 µM, 10 min at 37 °C, read-out: IC50 for inhibition of human recombinant 5-LOX
# Procedure: Human recombinant 5-LOX (Cayman Chemical, 10 U) was pre-treated with vehicle (DMSO, 0.1%) or test compounds for 10 min in 1 mL PBS pH 7.4, 1 mM EDTA and 1 mM ATP on ice before CaCl2 (2 mM) and arachidonic acid (20 µM) were added. […] LTB4 isomers and 5-HETE were detected with a photodiode array detector (SPD-M20A, Shimadzu, Kioto, Japan) at 280 nm and 235 nm, respectively. Lipid quantitieswere calculated by internal calibration using PGB1 as reference standard. […]
One number for each entry, in µM.

COc1cc2c(c(OC)c1O)-c1c(ccc(OC)c1O)CC2 = 4.6

Would you mind giving IC50 for every compound in the list below?
1. COC1=CC(=O)C2=C(C1=O)c1c(cc(OC)cc1OC)CC2
2. COc1cc(O)c2c(c1)CCc1cc(OC)c(OC)c(O)c1-2

Result:
20.1
6.9
